System: PEO-1
Assay: Excess HSA synergy score (sum over dose matrix of excess over highest single agent) (score (summed % response)); higher = less synergy / more antagonism (negative = synergy)
Conditions: 72 h; read-out: viability/apoptosis luminescence (CellTiter-Glo or Caspase3-Glo / not stated per table); matrix design: 6x6, 5-fold dilutions (primary screen)
Over roughly 1,500 compounds, “Excess HSA synergy score (sum over dose matrix of excess over highest single agent)” has its median near 43; the lowest 2% begin near -900. Only a selection was taken, and the lowest values are over-represented in it overall.
Measured Excess HSA synergy score of individual entries

compound	Excess HSA synergy score
O=C(N[C@H]1CN2CCC1CC2)c1ccc(Cl)cc1 + CC[C@H](NC(=O)[C@H](C)NC)C(=O)N1C[C@@H](O)C[C@H]1Cc1c(-c2[nH]c3cc(F)ccc3c2C[C@@H]2C[C@H](O)CN2C(=O)[C@H](CC)NC(=O)[C@H](C)NC)[nH]c2cc(F)ccc12 [Birinapant]	162
CC1=C2C[C@H]3[C@@H](CC=C4C[C@@H](O)CC[C@@]43C)[C@@H]2CC[C@]12O[C@@H]1C[C@H](C)CN[C@H]1[C@H]2C [Cyclopamine] + CC[C@H](NC(=O)[C@H](C)NC)C(=O)N1C[C@@H](O)C[C@H]1Cc1c(-c2[nH]c3cc(F)ccc3c2C[C@@H]2C[C@H](O)CN2C(=O)[C@H](CC)NC(=O)[C@H](C)NC)[nH]c2cc(F)ccc12 [Birinapant]	82.1
CCNC(=O)C[C@@H]1N=C(c2ccc(Cl)cc2)c2cc(OC)ccc2-n2c(C)nnc21 + CC[C@H](NC(=O)[C@H](C)NC)C(=O)N1C[C@@H](O)C[C@H]1Cc1c(-c2[nH]c3cc(F)ccc3c2C[C@@H]2C[C@H](O)CN2C(=O)[C@H](CC)NC(=O)[C@H](C)NC)[nH]c2cc(F)ccc12 [Birinapant]	-120
